- measured.on: α-melanocyte-stimulating hormone receptor (hMC4R) (Homo sapiens (Human), UniProt P32245)
- Sequence (P32245 whole entry): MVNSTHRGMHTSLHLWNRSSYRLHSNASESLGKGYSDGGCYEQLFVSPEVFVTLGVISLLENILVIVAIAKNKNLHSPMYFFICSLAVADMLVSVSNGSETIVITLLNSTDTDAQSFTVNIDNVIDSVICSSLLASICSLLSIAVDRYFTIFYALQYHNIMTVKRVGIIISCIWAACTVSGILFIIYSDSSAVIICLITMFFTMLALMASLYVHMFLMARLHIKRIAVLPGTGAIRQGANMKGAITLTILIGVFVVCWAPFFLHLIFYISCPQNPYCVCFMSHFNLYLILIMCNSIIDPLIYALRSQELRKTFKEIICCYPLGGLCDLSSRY
- experimental.protocol: In vitro binding affinity assay using hMC4R (radioligand competition binding, [125I]-(Nle4, D-Phe7)-α-MSH)
- conditions.used: geometric mean, read-out: Ki (nM) geometric mean
attribute.measured: Ki (nM)

(1) COc1cc([C@@H](C)C(=O)N2CC[C@@]3(CCc4cc(-c5nc(C(F)(F)F)ccc5F)c(C)nc4N3)C2)c(F)cn1
(2) Cc1nc2c(cc1-c1nnn(C)n1)CC[C@@]1(CCN(C(=O)Cc3ccc(C(F)(F)F)cc3)C1)N2 (single isomer, unassigned) [Example 66]
INPUT: Between 1 and 2 , which one shows the larger Ki value? Choose, then provide that item's label.
OUTPUT: 2
